Assay: Compatibility (clarity) in water borne urethane/acrylic copolymer coating, Example 101
Type: physicochemical
Settings: 2% by weight stabilizer; haziness = incompatibility
Assay endpoint: Solidified coating in jar, clarity, 19 days

Sample answers from the record:
1) CC(=O)O.CCCCN(c1nc(NCCNCCNCCN)nc(N(CCCC)C2CC(C)(C)N(OC3CCCCC3)C(C)(C)C2)n1)C1CC(C)(C)N(OC2CCCCC2)C(C)(C)C1; clear
2) CCCCN(c1nc(Nc2ccc(S(=O)(=O)O)cc2)nc(N(CCCC)C2CC(C)(C)N(OC3CCCCC3)C(C)(C)C2)n1)C1CC(C)(C)N(OC2CCCCC2)C(C)(C)C1.Cl; clear
3) CCCCN(c1nc(Nc2ccc(Cl)c(C(=O)O)c2)nc(N(CCCC)C2CC(C)(C)N(OC3CCCCC3)C(C)(C)C2)n1)C1CC(C)(C)N(OC2CCCCC2)C(C)(C)C1; clear
4) CON1C(C)(C)CC(NCCOCCOCCNC2CC(C)(C)N(OC)C(C)(C)C2)CC1(C)C; clear
5) CCCCN(c1nc(NCCN2CCNCC2)nc(N(CCCC)C2CC(C)(C)N(OC3CCCCC3)C(C)(C)C2)n1)C1CC(C)(C)N(OC2CCCCC2)C(C)(C)C1.Cl; clear

// below: Solidified coating in jar, clarity, 19 days requested for another compound
Consider the compound "CCCCCCCCON1C(C)(C)CC(OC(=O)CCCCCCCCC(=O)OC2CC(C)(C)N(OCCCCCCCC)C(C)(C)C2)CC1(C)C" and give its measured Solidified coating in jar, clarity, 19 days.
hazy
